B1: TPR 5TU (parent)
chain: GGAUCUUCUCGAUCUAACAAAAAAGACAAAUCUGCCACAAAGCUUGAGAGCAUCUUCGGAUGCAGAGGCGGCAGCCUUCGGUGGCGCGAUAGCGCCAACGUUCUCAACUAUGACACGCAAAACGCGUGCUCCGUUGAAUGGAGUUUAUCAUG

# Variants of: B1
# protocolDescription: polymerase ribozyme fitness, log enrichment relative to wild type (log ratio); higher = more active; in vitro selection for triplet polymerase activity
Variants at the floor of the assay were thinned out.
Mark criterion not met for polymerase ribozyme fitness (log ratio) values under -4, and criterion met for everything at or above.

{"columns": ["variantNotation", "labelClass"],
 "data": [
  ["A40U C75G C85G U135G G140U", "criterion not met"],
  ["G48A C76A G94C A106G U127A G141C", "criterion not met"],
  ["A28C C85G A106C A113C", "criterion not met"],
  ["U55C C63U C85G A107U A142U U145A", "criterion not met"],
  ["A29G C76G C93U", "criterion not met"],
  ["A16C A17G C96G C118U", "criterion met"],
  ["U102G U104C U148A A150U", "criterion not met"],
  ["G42A G48U A52U C75A U90C", "criterion not met"],
  ["U101G G136C", "criterion met"],
  ["A28U C96U", "criterion met"],
  ["C57A G84U A89U G92U C118U U151A", "criterion not met"],
  ["G67A G84U", "criterion not met"],
  ["A40G A73G G86A", "criterion not met"],
  ["C57U G83C", "criterion met"],
  ["A12U G42C C51U C93U C123A G124U", "criterion not met"],
  ["G11U A37U C87A", "criterion not met"],
  ["C38G C75U C93G", "criterion not met"],
  ["A24C G86C G143A U148C", "criterion not met"],
  ["U45G G70A C87U U144G", "criterion not met"],
  ["A16U G94C", "criterion met"],
  ["A20G A21C C93A A97G", "criterion met"],
  ["C14U G74A G94A A122G", "criterion not met"]
]}
